Source of measurements: patent US20230091047A1

Reported EC50 values follow for various compounds
# Test system: HBV (HepG2.117 cell line, inducibly HBV producing)
# Assay details: Anti-HBV activity: intracellular HBV DNA by real-time PCR in HepG2.117 cells after 3 days of treatment
# Type: cell-based, hepatitis B virus
# Condition summary: Hepatitis B virus, HepG2.117, 72 h, HepG2.117 cells, 3 days of treatment, intracellular HBV DNA by real-time PCR; mean value; read-out: EC50 (μM, mean value)
# Method: The anti HBV activity was measured using the HepG2.117 cell line, a stable, inducibly HBV producing cell line, which replicates HBV in the absence of doxycycline (Tet-off system). The HepG2 cell line is available from ATCCR under number HB-8065. Transfection of the HepG2 cell line can be as described in Sun and Nassal 2006 Journal of Hepatology 45 (2006) 636-645 “Stable HepG2- and Huh7-based human hepatoma cell lines for efficient regulated expression of infectious hepatitis B virus”. […]

| Compound | Target under test | Units label | Comparison operator | EC50 |
| --- | --- | --- | --- | --- |
| CC(C)Nc1nc2c(c(=O)n1-c1ccc(S(C)(=O)=O)cc1)CC(c1ccc(F)cc1)N(C(=O)c1ccc(Cl)c(Cl)c1)C2 (stereo not shown) [Compound C110] | HBV (HepG2.117 cell line, inducibly HBV producing) | µM | > | 50 |
| COc1ccc(CNc2nc3c(c(=O)n2C2CCN(S(C)(=O)=O)CC2)CCN(C(=O)c2ccc(Cl)c(Cl)c2)C3)cc1 [Compound C66] | HBV (HepG2.117 cell line, inducibly HBV producing) | µM | = | 0.77 |
| CC(C)Nc1nc2c(c(=O)n1-c1ccc(C(=O)NCCO)cc1)C[C@@H](C)N(C(=O)c1ccc(Cl)c(Cl)c1)C2 [Compound C204] | HBV (HepG2.117 cell line, inducibly HBV producing) | µM | = | 0.54 |
| CC(C)Nc1nc2c(c(=O)n1-c1ccc(N3CC(=O)N(C)C3)cc1)C[C@@H](C)N(C(=O)c1ccc(Cl)c(Cl)c1)C2 [Compound C202] | HBV (HepG2.117 cell line, inducibly HBV producing) | µM | = | 0.19 |

----------
# Test system: HBV (HepG2.117 cell line, inducibly HBV producing)
# Assay details: Anti-HBV activity: intracellular HBV DNA by real-time PCR in HepG2.117 cells after 3 days of treatment
# Type: cell-based, hepatitis B virus
# Condition summary: Hepatitis B virus, HepG2.117, 72 h, HepG2.117 cells, 3 days of treatment, intracellular HBV DNA by real-time PCR; mean value; read-out: EC50 (μM, mean value)
Reported metric: log10 EC50 (log10 of the value in µM)

| Compound | Test result |
| --- | --- |
| CC(C)Nc1nc2c(c(=O)n1-c1ccc(S(C)(=O)=O)cc1)CCN(C(=O)c1cc3ccc(F)cc3[nH]1)C2 [Compound C137] | -0.52 |
| COc1ccc(CNc2nc3c(c(=O)[nH]2)CCN(C(=O)c2ccc(Cl)c(C#N)c2)C3)cc1 [Compound C103] | 1.26 |
| CNC(=O)c1ccc(-n2c(NC(C)(C)C)nc3c(c2=O)C[C@@H](C)N(C(=O)c2ccc(Cl)c(C(F)(F)F)c2)C3)c(Cl)c1 (single isomer, unassigned) [Compound C677a] | -1.70 |
| CC(C)Nc1nc2c(c(=O)n1-c1ccc(S(C)(=O)=O)cc1)CC(C)N(C(=O)c1ccc(Cl)c(Cl)c1)C2 (centres unmarked) [Compound C100] | -0.29 |
| CNC(=O)c1ccc(-n2c(NC(C)C)nc3c(c2=O)C[C@@H](C)N(C(=O)c2ccc(Cl)c(Cl)c2)C3)c(Cl)c1 [Compound C293] | -1.22 |
| COc1ccccc1-n1c(NC2CCCC2)nc2c(c1=O)CCN(C(=O)c1ccc(Cl)c(Cl)c1)C2 [Compound C45] | 0.82 |
| COc1ccccc1-n1c(NCc2cscn2)nc2c(c1=O)CCN(C(=O)c1ccc(Cl)c(Cl)c1)C2 [Compound C16] | 0.36 |
| CNC(=O)c1cccc(-n2c(NC(C)C)nc3c(c2=O)C[C@@H](C)N(C(=O)c2ccc(Cl)c(Cl)c2)C3)c1 [Compound C232] | -0.82 |
| CNC(=O)c1cc(Cl)c(-n2c(NC(C)C)nc3c(c2=O)C[C@@H](C)N(C(=O)c2ccc(Cl)c(Cl)c2)C3)cc1OC [Compound C322] | -0.55 |
| COc1ccccc1-n1c(N)nc2c(c1=O)CCN(C(=O)c1ccc(Cl)c(Cl)c1)C2 [Compound C57] | -0.04 |
| COc1cccnc1-c1ccc(-n2c(NC(C)C)nc3c(c2=O)CCN(C(=O)c2ccc(Cl)c(Cl)c2)C3)cc1 [Compound C172] | 0.22 |
| COc1ccccc1-n1c(NCc2cccnc2)nc2c(c1=O)CCN(C(=O)c1ccc(Cl)c(Cl)c1)C2 [Compound C9] | 1.06 |
| CNC(=O)c1cc(-n2c(NC(C)C)nc3c(c2=O)C[C@@H](C)N(C(=O)c2ccc(Cl)c(Cl)c2)C3)[nH]n1 [Compound C355] | -1.05 |
| COc1ccc(CNc2nc3c(c(=O)n2-c2ccc(C(=O)O)cc2)CCN(C(=O)c2ccc(Cl)c(Cl)c2)C3)cc1 [Compound C124] | 1.57 |

----------
# Assay details: in vitro
# Format: cell-based
# Condition summary: human, HepG2 or HepG2.117 cells, 3-days incubation (unmarked values), ATPlite; mean value
Reported metric: CC50 at 3 days

| Mol smiles | Test result |
| --- | --- |
| CC(C)Nc1nc2c(c(=O)n1-c1ccc(-c3ccn4ccnc4c3)cc1)C[C@@H](C)N(C(=O)c1ccc(Cl)c(Cl)c1)C2 | 9.8 µM |
| CNC(=O)c1ccc(-n2c(N[C@H]3CC3(C)C)nc3c(c2=O)C[C@@H](C)N(C(=O)c2ccc(Cl)c(Cl)c2)C3)cc1 | > 50 µM |
| CNC(=O)c1ccc(-n2c(NC(C)C)nc3c(c2=O)CCN(C(=O)c2ccc(Cl)c(Cl)c2)C3)cc1F | > 50 µM |

----------
# Assay details: in vitro
# Type: cell-based
# Condition summary: human, HepG2 or HepG2.117 cells, ATPlite, 3-days incubation (not marked with *), mean value
In this section, each of the molecules is paired with its reported CC50 at 3 days.
Reported metric: CC50 at 3 days

| Molecule | Reported metric | Test result |
| --- | --- | --- |
| CNC(=O)c1ccc(-n2c(N[C@H](C)c3ccc(S(C)(=O)=O)cc3)nc3c(c2=O)C[C@@H](C)N(C(=O)c2ccc(Cl)c(Cl)c2)C3)cc1 (single isomer, unassigned) [Compound C412a] | CC50 at 3 days | > 50 µM |
| CNC(=O)c1ccc(-n2c(Nc3cn(C)nn3)nc3c(c2=O)C[C@@H](C)N(C(=O)c2ccc(Cl)c(Cl)c2)C3)cc1 [Compound C421] | CC50 at 3 days | > 50 µM |
| CNC(=O)c1ccc(-n2c(NC(C)C)nc3c(c2=O)C[C@@H](C)N(C(=O)c2cc(F)c(Br)cc2Cl)C3)cc1 [Compound C592] | CC50 at 3 days | > 50 µM |
| CNC(=O)c1ccc(-n2c(N3CC4CC3(C)C4)nc3c(c2=O)C[C@@H](C)N(C(=O)c2ccc(Cl)c(Cl)c2)C3)cc1 [Compound C444] | CC50 at 3 days | 37.6 µM |
| CNC(=O)c1ccc(-n2c(NC(C)C)nc3c(c2=O)C[C@@H](C)N(C(=O)c2ccc(OC(F)F)c(Br)c2)C3)cc1 [Compound C571] | CC50 at 3 days | > 50 µM |
| CNC(=O)c1ccc(-n2c(NCc3ncn(-c4ccccc4)n3)nc3c(c2=O)C[C@@H](C)N(C(=O)c2ccc(Cl)c(Cl)c2)C3)cc1 [Compound C556] | CC50 at 3 days | 25.6 µM |
| CNC(=O)c1ccc(-n2c(N[C@@H](C)c3ccc(S(C)(=O)=O)cc3)nc3c(c2=O)C[C@@H](C)N(C(=O)c2ccc(Cl)c(Cl)c2)C3)cc1 (single isomer, unassigned) [Compound C412b] | CC50 at 3 days | > 50 µM |
| CNC(=O)c1ccc(-n2c(NC(C)C)nc3c(c2=O)C[C@@H](C)N(C(=O)c2cn4ccccc4n2)C3)cc1 [Compound C497] | CC50 at 3 days | > 50 µM |
| CNC(=O)c1cc(-n2c(N[C@@H](C)c3ccc(F)cc3)nc3c(c2=O)C[C@@H](C)N(C(=O)c2ccc(Cl)c(C(F)(F)F)c2)C3)n(C)n1 [Compound C658] | CC50 at 3 days | 32.2 µM |
| CNC(=O)c1ccc(-n2c(N[C@H](CC3CC3)c3ccccc3)nc3c(c2=O)C[C@@H](C)N(C(=O)c2ccc(Cl)c(Cl)c2)C3)cc1 (single isomer, unassigned) [Compound C437a] | CC50 at 3 days | 24.6 µM |
| CNC(=O)c1ccc(-n2c(N[C@@H](C)c3ccc4c(ccn4C)c3)nc3c(c2=O)C[C@@H](C)N(C(=O)c2ccc(Cl)c(Cl)c2)C3)cc1 (single isomer, unassigned) [Compound C450b] | CC50 at 3 days | > 50 µM |
| CNC(=O)c1cc(-n2c(NC(C)c3ccc(OC(F)(F)F)cc3)nc3c(c2=O)C[C@@H](C)N(C(=O)c2ccc(Cl)c(Cl)c2)C3)[nH]n1 (stereo partly shown) [Compound C531] | CC50 at 3 days | 26.3 µM |
| CNC(=O)c1ccc(-n2c(NC(C)C)nc3c(c2=O)C[C@@H](C)N(C(=O)c2ccc(Cl)cc2OC)C3)cc1 [Compound C593] | CC50 at 3 days | > 50 µM |
| CNC(=O)c1ccc(-n2c(NCc3ccc(-c4nc[nH]n4)cc3)nc3c(c2=O)C[C@@H](C)N(C(=O)c2ccc(Cl)c(Cl)c2)C3)cc1 [Compound C468] | CC50 at 3 days | > 50 µM |
| CNC(=O)c1ccc(-n2c(N[C@@H](C)c3ccccc3OC)nc3c(c2=O)C[C@@H](C)N(C(=O)c2ccc(Cl)c(Cl)c2)C3)cc1 (single isomer, unassigned) [Compound C402b] | CC50 at 3 days | 18.8 µM |
| CNC(=O)c1ccc(-n2c(NC(C)C)nc3c(c2=O)C[C@@H](C)N(C(=O)c2ccc(F)c(C)c2)C3)cc1 [Compound C499] | CC50 at 3 days | > 50 µM |
